Experimental Target: hGYS1 enzyme (recombinant hGYS1/GN1 protein) (Homo sapiens (Human))
Sequence (P13807 whole entry): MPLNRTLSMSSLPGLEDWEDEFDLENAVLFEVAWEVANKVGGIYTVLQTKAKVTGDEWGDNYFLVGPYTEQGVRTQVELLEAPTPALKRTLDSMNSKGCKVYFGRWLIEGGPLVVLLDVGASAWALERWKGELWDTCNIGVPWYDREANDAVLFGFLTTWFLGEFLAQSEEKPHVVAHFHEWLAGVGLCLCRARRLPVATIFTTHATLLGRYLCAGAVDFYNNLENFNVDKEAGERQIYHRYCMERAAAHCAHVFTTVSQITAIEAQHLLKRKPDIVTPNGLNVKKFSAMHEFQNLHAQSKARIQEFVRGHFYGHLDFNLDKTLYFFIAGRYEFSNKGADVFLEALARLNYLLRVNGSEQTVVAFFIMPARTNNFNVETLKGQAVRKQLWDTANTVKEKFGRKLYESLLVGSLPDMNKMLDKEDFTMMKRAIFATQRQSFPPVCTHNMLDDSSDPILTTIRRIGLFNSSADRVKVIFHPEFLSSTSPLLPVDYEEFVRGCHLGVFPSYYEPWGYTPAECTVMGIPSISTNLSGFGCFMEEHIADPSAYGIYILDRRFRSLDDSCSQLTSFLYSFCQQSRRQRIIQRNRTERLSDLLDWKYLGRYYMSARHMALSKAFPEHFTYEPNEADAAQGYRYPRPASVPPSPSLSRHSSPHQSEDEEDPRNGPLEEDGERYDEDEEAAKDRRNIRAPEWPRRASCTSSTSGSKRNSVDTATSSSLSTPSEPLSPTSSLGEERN
Sequence (P46976 whole entry partner): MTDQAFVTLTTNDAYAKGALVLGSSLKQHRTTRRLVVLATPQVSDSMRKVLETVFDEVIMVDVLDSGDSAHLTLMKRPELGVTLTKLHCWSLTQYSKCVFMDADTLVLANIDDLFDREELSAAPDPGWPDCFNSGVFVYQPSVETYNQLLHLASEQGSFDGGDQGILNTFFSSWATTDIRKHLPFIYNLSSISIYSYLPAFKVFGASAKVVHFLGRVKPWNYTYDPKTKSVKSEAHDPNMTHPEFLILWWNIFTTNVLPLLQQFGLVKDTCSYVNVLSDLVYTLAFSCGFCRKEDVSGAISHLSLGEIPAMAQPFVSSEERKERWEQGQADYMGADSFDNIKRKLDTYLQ
Method Notes: GYS1 coupled enzyme assay (PK/LDH)
Experimental Conditions: hGYS1/GN1 50 nM, UDP-Glucose 0.8 mM, G6P 1 mM; geometric mean of at least 2 runs
pIC50: −log10 of the molar value.
Property Label: pIC50

[
  {
    "Smi": "CC(=O)N(CCC(=O)N1C[C@H](F)C[C@H]1C(=O)N[C@@H](c1ccccc1)c1ccc(C(C)C)cc1)c1ccn(C)n1",
    "Obs Value": 7.23
  },
  {
    "Smi": "CC(C)c1ccc([C@@H](NC(=O)[C@@H]2C[C@@H](F)CN2C(=O)Cn2ncc(N3CC(F)(F)C3)n2)c2ccccc2)nc1",
    "Obs Value": 7.51
  },
  {
    "Smi": "O=C(N[C@@H](c1ccccc1)c1ccc(C2CC2)c(F)c1)[C@@H]1C[C@@H](F)CN1C(=O)Cn1cnnn1",
    "Obs Value": 6.66
  },
  {
    "Smi": "CC(C)c1ccc([C@@H](NC(=O)[C@@H]2CCC3(CC3)N2C(=O)Cc2cnn[nH]2)c2ccccc2)cc1F",
    "Obs Value": 6.11
  }
]

[1] Cc1cnc(CC(=O)N2C[C@H](F)C[C@H]2C(=O)N[C@@H](c2ccccc2)c2ccc(C3CC(F)(F)C3)c(F)n2)o1
[2] CC(C)c1ccc([C@@H](NC(=O)[C@@H]2C[C@@H](F)CN2C(=O)[C@@H]2CNC(=O)O2)c2ccccc2)cc1
IN: Of the pair 1 and 2 , name the member with the lesser recorded pIC50. Pick one; state its label.
OUT: 2

Origin of values: patent US11814367B2
